testTarget: amyloid-β (1-42) peptide (Homo sapiens, UniProt P05067)
Construct: Stock solution of amyloid-β (1-42) peptide (Anaspec; 1384 µM in 1% NH4OH); purchased Anaspec
Sequence (P05067 672-713 limits assumed): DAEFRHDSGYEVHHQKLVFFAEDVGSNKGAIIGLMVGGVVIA
assayExplanation: Amyloid β aggregation assay (ThT fluorescence)
Type: biochemical
studyConditions: Aβ(1-42), 48 h, read-out: Anti-Aβ aggregation % Inhibition (at 100 µM) (±SEM)
Please go through the items and note down their inhibition at 100 µM.
Report the value in % with no unit label.

Given `Clc1ccc(-c2cn(C[C@@H]3Cc4c([nH]c5ccccc45)CN3)nn2)cc1Cl` , state its recorded inhibition at 100 µM.
10.1

Fill blank: measured inhibition at 100 µM of the molecule `COc1ccc2cc(-c3cn(C[C@@H]4Cc5c([nH]c6ccccc56)CN4)nn3)ccc2c1` is ____.
7.19

What value of inhibition at 100 µM has been reported for the following molecule? CC(C)(C)c1ccc(-c2cn(C[C@@H](N)Cc3c[nH]c4ccccc34)nn2)cc1 [Compound 12a]
17.8

What does the data say about its inhibition at 100 µM? Entry: N[C@@H](Cc1c[nH]c2ccccc12)Cn1cc(CNC(=O)c2cc(O)cc(O)c2)nn1 [Compound 12f]
3.8

###

assayExplanation: Fe (II) chelation capacity assay (ferrozine)
Procedure: An aqueous solution of 0.2 mM ferrous sulphate was prepared. Fifty microliters of this solution was added to 96 well plate, then 40 µL of 500 µM of test compounds in 50% DMSO were added to each well followed by DI water to adjust the volume to 150 µL. […] The absorbance was measured at 562 nm by using infinite 200 pro^TM, Tecan. […] Chelation capacity of each compounds were calculated. Compounds having chelating capacity over than 50% were evaluated for stoichiometric ratio of compound: metal.
observedProperty: Fe chelation % Capacity (at 100 µM) (±SEM)

So what does the record say about Fe chelation % Capacity (at 100 µM) (±SEM) for CC(C)(C)c1ccc(-c2cn(C[C@@H](N)Cc3c[nH]c4ccccc34)nn2)cc1 [Compound 12a] ?
42.65 (±1.07) %

Endpoint output: Fe chelation % Capacity (at 100 µM) (±SEM) of COc1ccc2cc(-c3cn(C[C@@H]4Cc5c([nH]c6ccccc56)CN4)nn3)ccc2c1 [Compound 6b] . Value?
12.35 (±0.68) %

What does the record list as Fe chelation % Capacity (at 100 µM) (±SEM) for O=C(NCc1cn(C[C@@H]2Cc3c([nH]c4ccccc34)CN2)nn1)c1ccccc1C(=O)c1ccc(O)cc1 [Compound 6d] ?
32.86 (±0.19) %

Returns the measured Fe chelation % Capacity (at 100 µM) (±SEM) for the input compound. Input: N[C@@H](Cc1c[nH]c2ccccc12)Cn1cc(CNC(=O)c2ccccc2C(=O)c2ccc(O)cc2)nn1 [Compound 12d]
13.87 (±0.59) %

Which value of Fe chelation % Capacity (at 100 µM) (±SEM) has been reported for N[C@@H](Cc1c[nH]c2ccccc12)Cn1cc(CNC(=O)c2cc(O)cc(O)c2)nn1 [Compound 12f] in the records?
13.06 (±0.16) %

// data source = paper PMC3618987
